src = ChEMBL document CHEMBL1143063

- procedureDetails: Volume of distribution in rat
- Assay type: ADME, organism-based
- conditionInfo: in vivo, read-out: Vss
measuredAttribute: Vd (L/kg)

smilesStr	measuredAttribute	valueMeasured
C[C@H]1CN([C@@H]2CC[C@](C)(C(=O)NCc3cc(C(F)(F)F)cc(C(F)(F)F)c3)C2)CC[C@@]12C=Cc1ccccc12	Vd	6
